assay: Solubility at pH 7.4; type: physicochemical; conditions: buffer
Attribute: solubility
Give the value, in units of µg/mL, as a plain number.

Example molecules with recorded solubility:
INSERT INTO assay_data (sample_smiles, value) VALUES
  ('CC(=O)NCC1CCN(c2nccc(-c3ccc4ccccc4c3)n2)CC1', 1),
  ('Cc1ccc(-c2ccnc(N(C)c3ccc(S(N)(=O)=O)cc3)n2)s1', 15),
  ('NCC1CCN(c2nccc(-c3ccc4ccccc4c3)n2)CC1', 65);

Alright, here's another molecule for you.
solubility recorded for this molecule, Cc1ccc(-c2ccnc(Nc3ccc(S(N)(=O)=O)cc3)n2)s1 , is 8

* * *

test: AUC (0 to infinity) in ovariectomized rat at 2 mg/kg, iv; type: ADME, organism-based; parameters: time infinity, dose 2 mg/kg, route intravenous; conditions: female, plasma
metric-name: AUC(0-inf) (ng·h/mL)
Give the value, in units of ng·h/mL, as a plain number.

AUC(0-inf) recorded for this molecule, NCC1CCN(c2nccc(-c3ccc4ccccc4c3)n2)CC1 , is 1030

* * *

assay: Plasma clearance in ovariectomized rat at 2 mg/kg, iv; assay type: ADME, organism-based; design: dose 2 mg/kg, route intravenous; details: female
metric-name: clearance (mL/min/kg)
Give the value, in units of mL/min/kg, as a plain number.

clearance recorded for this molecule, NCC1CCN(c2nccc(-c3ccc4ccccc4c3)n2)CC1 , is 32

* * *

experiment: Half life in ovariectomized rat plasma at 2 mg/kg, iv; type: ADME, organism-based; design: dose 2 mg/kg, route intravenous; settings: female
metric-name: half-life (h)
Give the value, in units of h, as a plain number.

half-life recorded for this compound, NCC1CCN(c2nccc(-c3ccc4ccccc4c3)n2)CC1 , is 8.2

* * *

assay: Membrane permeability by PAMPA; assay type: ADME; conditions: read-out: permeability
metric-name: Papp (×10⁻⁶ cm/s)
Give the value, in units of ×10⁻⁶ cm/s, as a plain number.

Papp recorded for this compound, NCC1CCN(c2nccc(-c3ccc4ccccc4c3)n2)CC1 , is 5.9

* * *

experiment: AUC (0 to infinity) in ovariectomized rat at 10 mg/kg, po; format: ADME, organism-based; design: time infinity, dose 10 mg/kg, route oral; details: female, plasma
metric-name: AUC(0-inf)

AUC(0-inf) recorded for this molecule, NCC1CCN(c2nccc(-c3ccc4ccccc4c3)n2)CC1 , is 3990 ng·h/mL

* * *

biological target: Glycogen synthase kinase-3 beta (Homo sapiens)
Sequence (P49841 whole entry): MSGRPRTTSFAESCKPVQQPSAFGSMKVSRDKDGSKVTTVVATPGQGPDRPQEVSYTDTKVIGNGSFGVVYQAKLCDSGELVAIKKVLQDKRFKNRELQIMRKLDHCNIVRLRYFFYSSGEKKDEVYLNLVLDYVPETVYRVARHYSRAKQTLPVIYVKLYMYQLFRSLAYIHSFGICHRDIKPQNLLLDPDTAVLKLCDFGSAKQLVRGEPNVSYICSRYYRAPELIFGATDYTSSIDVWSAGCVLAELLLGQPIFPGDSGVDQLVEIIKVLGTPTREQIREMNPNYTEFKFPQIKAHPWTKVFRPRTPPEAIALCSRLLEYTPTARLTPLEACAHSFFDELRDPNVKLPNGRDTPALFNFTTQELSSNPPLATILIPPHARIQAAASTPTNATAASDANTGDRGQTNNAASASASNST
metric-name: IC50 (nM)
Give the value, in units of nM, as a plain number.

IC50 recorded for this compound, Cc1ccc(-c2ccnc(Nc3ccc(S(N)(=O)=O)cc3)n2)s1 , is 200
